This collection of values is drawn from patent US20120132797A1.

System: Wistar (Crl:WI(Han)) rats
Assay: Mass spectrometry-based plasma metabolite profiling of rats treated with known inducers of thyroid function impairment
Format: in vivo, rat
Conditions: male rats, mh28 (study day 28), ratio of group medians vs controls, Table 4
Measured dihomo-gamma-Linolenic acis (C20:cis[8,11,14]3) values are reported for all entries that follow.

Guide cases for dihomo-gamma-Linolenic acis (C20:cis[8,11,14]3), answers given:
[[record]]
molecule = "CCC1(c2ccccc2)C(=O)NC(=O)NC1=O [Phenobarbital sodium]"
endpoint_result = 0.96

[[record]]
molecule = "Cn1cc[nH]c1=S"
endpoint_result = 2.02

[[record]]
molecule = "CCC(CC)Nc1c([N+](=O)[O-])cc(C)c(C)c1[N+](=O)[O-]"
endpoint_result = 2.76


Given item Cc1cccc(C)c1N(Cn1cccn1)C(=O)CCl , the value recorded as its dihomo-gamma-Linolenic acis (C20:cis[8,11,14]3) is 3.36
